Biological target: Human immunodeficiency virus type 1 integrase (Human immunodeficiency virus 1, UniProt Q7ZJM1)
Sequence (Q7ZJM1 whole entry): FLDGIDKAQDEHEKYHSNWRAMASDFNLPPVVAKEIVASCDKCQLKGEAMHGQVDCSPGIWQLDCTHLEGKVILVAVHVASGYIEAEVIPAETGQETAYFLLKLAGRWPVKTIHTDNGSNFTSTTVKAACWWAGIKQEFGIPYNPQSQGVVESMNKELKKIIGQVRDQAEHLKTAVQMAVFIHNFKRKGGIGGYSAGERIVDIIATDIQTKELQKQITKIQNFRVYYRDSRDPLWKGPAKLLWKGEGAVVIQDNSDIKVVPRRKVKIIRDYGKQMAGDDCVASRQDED
Test: Inhibition of HIV1 recombinant integrase by electrochemiluminescent-based high-throughput strand transfer assay
pIC50: −log10 of the molar value.
measured attribute: pIC50

COc1c2c(c(O)c3c1C(=O)c1c(cc(O)c(C)c1O)C3=O)-c1c(cc(/C=N/NC(=N)N)c(C(=O)O)c1O)CC2; 5.50

[1] COc1c2c(c(O)c3c1C(=O)c1c(cc(O)c(C)c1O)C3=O)-c1c(cc(/C=N/NC(=O)c3ccccc3)c(C(=O)O)c1O)CC2
[2] COc1c2c(c(O)c3c1C(=O)c1c(cc(O)c(C)c1O)C3=O)-c1c(cc3cnn(CC(=O)O)c(=O)c3c1O)CC2
Lab note: check whether 1 or 2 shows the higher recorded pIC50. Answer with the label corresponding to your selection.
2
(2: 5.34, 1: 4.84)

---

Test: Inhibition of HIV1 RNase H by FRET high-throughput assay
Design: species or system Human immunodeficiency virus 1
measured attribute: IC50 (µM)

Examples with answers:
COc1c2c(c(O)c3c1C(=O)c1c(cc(O)c(C)c1O)C3=O)-c1c(cc(/C=N/C34CC5CC(CC(C5)C3)C4)c(C(=O)O)c1O)CC2; 9.41
COc1c2c(c(O)c3c1C(=O)c1c(cc(O)c(C)c1O)C3=O)-c1c(cc3c(c1O)C(=O)N1c4ccccc4CNC31)CC2 (centres undefined); 0.78

[1] COc1c2c(c(O)c3c1C(=O)c1c(cc(O)c(C)c1O)C3=O)-c1c(cc3cn[nH]c(=O)c3c1O)CC2
[2] COc1c2c(c(O)c3c1C(=O)c1c(cc(O)c(C)c1O)C3=O)-c1c(cc3cnn(-c4ccc(C(=O)O)cc4)c(=O)c3c1O)CC2
Lab note: check whether 1 or 2 shows the higher recorded IC50. Answer with the label corresponding to your selection.
2
(2: 9.11 µM, 1: 4.06 µM)

---

Assay: Inhibition of HIV1 RNase H by FRET high-throughput assay
Design: species or system Human immunodeficiency virus 1
measured attribute: IC50 (µM)

CCCn1ncc2cc3c(c(O)c2c1=O)-c1c(O)c2c(c(OC)c1CC3)C(=O)c1c(cc(OC(=O)OC)c(C)c1OC(C)=O)C2=O; 8.98
COc1c2c(c(O)c3c1C(=O)c1c(cc(O)c(C)c1O)C3=O)-c1c(cc3c(c1O)C(=O)N1c4ccccc4SC31)CC2 (configuration not stated); 0.31
COc1c2c(c(O)c3c1C(=O)c1c(cc(O)c(C)c1O)C3=O)-c1c(cc(/C=N/Nc3ccc([N+](=O)[O-])cc3)c(C(=O)O)c1O)CC2; 14

[1] COc1c2c(c(O)c3c1C(=O)c1c(cc(O)c(C)c1O)C3=O)-c1c(cc3cnn(CC(=O)O)c(=O)c3c1O)CC2
[2] COc1c2c(c(OC(C)=O)c3c1C(=O)c1c(cc(OC(C)=O)c(C)c1OC(C)=O)C3=O)-c1c(cc3cnn(-c4ccccc4)c(=O)c3c1OC(C)=O)CC2
[3] CCOC(=O)Cn1ncc2cc3c(c(O)c2c1=O)-c1c(O)c2c(c(OC)c1CC3)C(=O)c1c(cc(O)c(C)c1O)C2=O
Put the items in order so that reported IC50 rises from first to last. Submit the labels in the order that the ranking request calls for.
3, 2, 1
